List of solubility values.
- test-protocol: Solubility in water (Table I)
- Assay type: physicochemical
- condition-context: water, 20° C; read-out: Solubility in water at 20° C
Field: numeric (mg/mL). Do not append units.

CC(=O)Nc1c(I)c(C(=O)N(C)CC(O)CO)c(I)c(C(=O)N(C)CC(O)CO)c1I (centres unmarked) = 550
CC(O)C(=O)Nc1c(I)c(C(=O)NC(CO)CO)c(I)c(C(=O)NC(CO)CO)c1I (racemic) = 300
CC(=O)Nc1c(I)c(C(=O)NCC(O)CO)c(I)c(C(=O)NCC(O)CO)c1I (centres unmarked) [Compound F, reference compound] = 5
C[C@H](O)C(=O)Nc1c(I)c(C(=O)NCC(O)CO)c(I)c(C(=O)NCC(O)CO)c1I (mixture of isomers) = 157
CC(O)C(=O)Nc1c(I)c(C(=O)NCC(O)CO)c(I)c(C(=O)NCC(O)CO)c1I (mixture of isomers) = 140
CC(=O)Nc1c(I)c(C(=O)NC(CO)CO)c(I)c(C(=O)NC(CO)CO)c1I [E, reference compound] = 2

Now for a further compound.
// returns reported solubility for input "C[C@H](O)C(=O)Nc1c(I)c(C(=O)NC(CO)CO)c(I)c(C(=O)NC(CO)CO)c1I"
890

====

- test-protocol: Solubility in organic solvents
- Assay type: physicochemical
- condition-context: organic solvent or mixture; ethanol, room temperature
value-type: solubility

Fill in: solubility of "C[C@H](O)C(=O)Nc1c(I)c(C(=O)NC(CO)CO)c(I)c(C(=O)NC(CO)CO)c1I" is ___
~100 mg/mL

====

- test-protocol: Solubility in water (Table I)
- Format: physicochemical
- condition-context: water, 40° C; read-out: Solubility in water at 40° C
value-type: solubility
Returns: string containing the numeric result and its unit.

Illustrative cases are given below, each with its answer.
CC(=O)Nc1c(I)c(C(=O)NCC(O)CO)c(I)c(C(=O)NCC(O)CO)c1I (centres unmarked) [Compound F, reference compound] = 8 mg/mL
CC(O)C(=O)Nc1c(I)c(C(=O)NCC(O)CO)c(I)c(C(=O)NCC(O)CO)c1I (mixture of isomers) = 200 mg/mL
C[C@H](O)C(=O)Nc1c(I)c(C(=O)NC(CO)CO)c(I)c(C(=O)NC(CO)CO)c1I = 1040 mg/mL
CC(O)C(=O)Nc1c(I)c(C(=O)NC(CO)CO)c(I)c(C(=O)NC(CO)CO)c1I (racemic) = 300 mg/mL

// next item, solubility requested
Request the reported solubility associated with C[C@H](O)C(=O)Nc1c(I)c(C(=O)NCC(O)CO)c(I)c(C(=O)NCC(O)CO)c1I (mixture of isomers)
210 mg/mL

====

This listing pairs molecules with measured Toxicity, LD50, i.v..
- Test system: mice
- test-protocol: Acute toxicity LD50 in mice (i.v., i.p., i.ce.)
- Format: in vivo
- condition-context: intravenous, 400 mg I per ml, 20 mg I per kg and minute, evaluated after 12 days
Dear colleague, please return just the value in mg I/kg, with no unit written.

CC(=O)Nc1c(I)c(C(=O)N[C@H]2C(O)O[C@H](CO)[C@@H](O)[C@@H]2O)c(I)c(N(C)C(C)=O)c1I (some centres unmarked) [Compound H, reference compound] = 10200

Shift focus to the following entry.
State its Toxicity, LD50, i.v. on mice: C[C@H](O)C(=O)Nc1c(I)c(C(=O)NC(CO)CO)c(I)c(C(=O)NC(CO)CO)c1I [Compound A]
21800

====

- test-protocol: Solubility in water (Table I)
- Assay type: physicochemical
value-type: Solubility in water (in words)

CC(=O)Nc1c(I)c(C(=O)NC(CO)CO)c(I)c(C(=O)NC(CO)CO)c1I [E, reference compound] = poor solubility
CC(=O)Nc1c(I)c(C(=O)NCC(O)CO)c(I)c(C(=O)NCC(O)CO)c1I (stereo not drawn) [Compound F, reference compound] = poor solubility

====

- System: rabbits
- test-protocol: Acute intracisternal toxicity LD50 in rabbits
- Type: in vivo
- condition-context: 400 mg I per ml
Listed compounds paired with reported Toxicity, LD50, i.ci.
State just the number; it will be interpreted in mg I/kg.

CC(=O)Nc1c(I)c(C(=O)N[C@H]2C(O)O[C@H](CO)[C@@H](O)[C@@H]2O)c(I)c(N(C)C(C)=O)c1I (some centres unmarked) [Compound H, reference compound] = 100
C[C@H](O)C(=O)Nc1c(I)c(C(=O)NC(CO)CO)c(I)c(C(=O)NC(CO)CO)c1I = 250
CNC(=O)c1c(I)c(NC(=O)CCCCC(=O)Nc2c(I)c(C(=O)O)c(I)c(C(=O)NC)c2I)c(I)c(C(=O)O)c1I = 37

What does the data say about its Toxicity, LD50, i.ci.? Entry: "O=S(=O)(CI)NC(CO)CO"
89

Now give it for CC(=O)Nc1c(I)c(C(=O)N(C)CC(O)CO)c(I)c(C(=O)N(C)CC(O)CO)c1I (centres unmarked) too.
81

====

- System: mice
- test-protocol: Acute toxicity LD50 in mice (i.v., i.p., i.ce.)
- Assay type: in vivo
- condition-context: intracerebral, 5 ml/kg, concentration varied, evaluated after 48 hours
Readings of Toxicity, LD50, i.ce. for the listed compounds
The response must be a number in mg I/kg with no trailing unit.

CNC(=O)c1c(I)c(NC(=O)CCCCC(=O)Nc2c(I)c(C(=O)O)c(I)c(C(=O)NC)c2I)c(I)c(C(=O)O)c1I = 280
CC(=O)Nc1c(I)c(C(=O)N[C@H]2C(O)O[C@H](CO)[C@@H](O)[C@@H]2O)c(I)c(N(C)C(C)=O)c1I (some centres unmarked) [Compound H, reference compound] = 1400

So what's the measured Toxicity, LD50, i.ce. for this one? CC(=O)Nc1c(I)c(C(=O)N(C)CC(O)CO)c(I)c(C(=O)N(C)CC(O)CO)c1I (centres unmarked)
820

Cool, now "C[C@H](O)C(=O)Nc1c(I)c(C(=O)NC(CO)CO)c(I)c(C(=O)NC(CO)CO)c1I"
1500

Same question, "O=S(=O)(CI)NC(CO)CO" this time
385

====

// reported solubility per item
- test-protocol: Solubility in water (Table I)
- Type: physicochemical
- condition-context: water, 60° C; read-out: Solubility in water at 60° C
- Experimental: The following Examples are further illustrative of this invention. All solubility values are in grams per 100 ml unless stated otherwise.

C[C@H](O)C(=O)Nc1c(I)c(C(=O)NCC(O)CO)c(I)c(C(=O)NCC(O)CO)c1I (mixture of isomers) = 400 mg/mL
CC(=O)Nc1c(I)c(C(=O)NCC(O)CO)c(I)c(C(=O)NCC(O)CO)c1I (stereo not drawn) [Compound F, reference compound] = 15 mg/mL
CC(=O)Nc1c(I)c(C(=O)NC(CO)CO)c(I)c(C(=O)NC(CO)CO)c1I [E, reference compound] = 5 mg/mL
C[C@H](O)C(=O)Nc1c(I)c(C(=O)NC(CO)CO)c(I)c(C(=O)NC(CO)CO)c1I = 1150 mg/mL

Query (compound): CC(O)C(=O)Nc1c(I)c(C(=O)NCC(O)CO)c(I)c(C(=O)NCC(O)CO)c1I (mixture of isomers) ; field requested: solubility
340 mg/mL

Likewise for CC(O)C(=O)Nc1c(I)c(C(=O)NC(CO)CO)c(I)c(C(=O)NC(CO)CO)c1I (racemic) ?
320 mg/mL

====

- System: mice
- test-protocol: Acute toxicity LD50 in mice (i.v., i.p., i.ce.)
- Type: in vivo
- condition-context: intravenous, 400 mg I per ml, 20 mg I per kg and minute, evaluated after 12 days
Catalogue of compounds with associated Toxicity, LD50, i.v.
Use mg I/kg as the unit, but write only the number.

O=S(=O)(CI)NC(CO)CO = 4700
CNC(=O)c1c(I)c(NC(=O)CCCCC(=O)Nc2c(I)c(C(=O)O)c(I)c(C(=O)NC)c2I)c(I)c(C(=O)O)c1I = 5500

For the next question, use this compound.
Entry CC(=O)Nc1c(I)c(C(=O)N(C)CC(O)CO)c(I)c(C(=O)N(C)CC(O)CO)c1I (stereo not drawn) : reported Toxicity, LD50, i.v. = ?
15700
